These entries and their values trace back to patent US20220064329A1.

# Experimental target: T1, recombinant human activated Factor VII (FVIIa) (human, UniProt P08709 61-212; P08709 213-466, Gla domain: ten glutamate residues may be gamma-carboxylated)
# T1 sequence 1: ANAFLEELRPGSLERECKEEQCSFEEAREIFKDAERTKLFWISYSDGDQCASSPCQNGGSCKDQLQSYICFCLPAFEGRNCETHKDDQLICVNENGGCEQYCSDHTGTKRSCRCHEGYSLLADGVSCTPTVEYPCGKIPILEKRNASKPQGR
# T1 sequence 2: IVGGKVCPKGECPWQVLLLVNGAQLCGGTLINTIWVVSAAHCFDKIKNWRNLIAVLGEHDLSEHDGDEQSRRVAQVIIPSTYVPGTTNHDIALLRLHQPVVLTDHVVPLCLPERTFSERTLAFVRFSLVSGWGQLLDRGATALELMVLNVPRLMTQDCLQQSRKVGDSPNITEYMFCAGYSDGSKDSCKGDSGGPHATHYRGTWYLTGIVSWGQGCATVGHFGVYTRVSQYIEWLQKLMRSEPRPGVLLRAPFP
# Assay name: cell-based or functional assay
# maps each entry to its AT inhibition (kinh %)
Answer with a number only, understood to be in %.

Record excerpt, results attached:
INSERT INTO measurements (binder, reported_property, quantitative_readout) VALUES
  ('mAb0578 (antibody, V domains shown, fully murine, hybridoma-derived; also called 12F19) VH: QVQLQQSGAELMKPGASVKISCKATGYTFNTYWIEWVKQRPGHGLEWIGEILPGRGTTNYNENFKGKATITADISSNTAYLQLSSLTGEDSAVYYCARLTPLSLRTGYWGQGTTLTVSS VL: DILLTQSPAILSVSPGERVSFSCRASQSIGTSIHWYQQRTNGSPRLLIKYASESISGIPSRFSGSGSGTDFTLSINSVESEDIADYYCQQSNSWPFTFGSGTKLEIK', 'AT inhibition (kinh %)', 77),
  ('mAb0013 (antibody, V domains shown) VH: QIQLVQSGPELKKPGETVKISCKASGYTFTDYSIQWVKQAPGKGLKWMGWINTETGKPSYADDLKGRSAFSLETSGSTAYLQISNLKNEDMATYFCVRDDYYGREDYWGQGTTLTVSS VL: DIVMTQSPSSLTVTAGEKVTVSCKSSQSLLNSGDQKNYLTWYQQKPGQPPKLLIYWASTRESGVPDRFTGSGSGTDFTLTISSVQAEDLAVYYCQNDFSYPYTFGGGTKLEIK', 'AT inhibition (kinh %)', 747);

Consider the record given below.
Query string: Tell us which AT inhibition (kinh %) value is on record for mAb0701 (antibody, V domains shown) VH: QIQLQQSGPELVKPGTSVKMACKASDYTFTDYYLHWVKQRPGQGLEWIGWIYPGSGNTKFNEKFKGKATLTVDTSSSTAYMHLSSLTSDDTAVYFCTRVLGRGAMDYWGQGTSVTVSS VL: DIVLTQSPPSLAVSLGQRAIISCKASQSVSFAGTSLMYWYQQKPGQQPKVLMYRASNLEAGVPIRFSGSGSGTDFTLNIHPVEEDDVATYYCQQSREYPYTFGGGTKLEIK
Result string: 26
